system: ASAU001 (laboratory strain of S. aureus, ATCC29213); test: MIC broth microdilution, ASAU001; assay type: cell-based; conditions: Staphylococcus aureus, ATCC29213, read-out: MIC ASAU001
recorded endpoint: MIC

CNC[C@H](NC(=O)c1ccc(C#C/C=C/c2ccc(CN3CCOCC3)cc2)cc1)C(=O)NO = 16 to 64 µg/mL
C[C@@H](O)[C@H](NC(=O)c1ccc(/C=C/C#Cc2ccc(F)cc2)cc1)C(=O)NO = 16 to 64 µg/mL
C[C@@H](N)[C@H](NC(=O)c1ccc(C#CC#Cc2ccncc2)cc1)C(=O)NO = 2 to 16 µg/mL

Answer for every listed entry: what is its MIC? The entries follow.
1. C[C@@H](N)[C@H](NC(=O)c1ccc(/C=C/C#Cc2ccc(CNC3CC3)cc2)cc1)C(=O)NO
2. C[C@@H](O)[C@H](NC(=O)c1ccc(C#Cc2ccc(O)cc2)cc1)C(=O)NO
3. CC(C)(O)[C@H](NC(=O)c1ccc(C#CC#Cc2cncnc2)cc1)C(=O)NO
4. C[C@@H](N)[C@H](NC(=O)c1ccc(C#CC#C[C@H](C)N2CCOCC2)cc1)C(=O)NO
5. C[C@@H](N)[C@H](NC(=O)c1ccc(C#CC#Cc2ccc(CNC3CC3)cc2)cc1)C(=O)NO

(A)
1: > 64 µg/mL; 2: 16 to 64 µg/mL; 3: 16 to 64 µg/mL; 4: 16 to 64 µg/mL; 5: 16 to 64 µg/mL

====

test system: ASAU001 (laboratory strain of S. aureus, ATCC29213); assay: MIC broth microdilution, ASAU001; type: cell-based; details: Staphylococcus aureus, ATCC29213, read-out: MIC ASAU001
recorded endpoint: MIC

Would you please look over these solved cases?
CC(C)[C@H](NC(=O)c1ccc(C#C/C=C/c2ccc(CN3CCOCC3)cc2)cc1)C(=O)NO = 16 to 64 mg/L
CC(C)C#CC#Cc1ccc(C(=O)NC(C(=O)NO)[C@@H](C)N)cc1 (stereo partly shown) = 2 to 16 mg/L
C[C@@H](N)[C@H](NC(=O)c1ccc(/C=C/C#Cc2ccc(C(F)(F)F)cc2)cc1)C(=O)NO = 2 to 16 mg/L
CC(C)C(C(=O)NO)C(=O)Nc1ccc(C#Cc2ccc(CN3CCOCC3)cc2)cc1 (stereo not shown) = > 64 mg/L
CC(C)(N)C(NC(=O)c1ccc(C#Cc2ccc(CO)cc2)cc1)C(=O)NO (stereo not shown) = 16 to 64 mg/L
C[C@@H](N)[C@H](NC(=O)c1ccc(C#CC#Cc2ccc(CNCCF)cc2)cc1)C(=O)NO = 16 to 64 mg/L
C[C@@H](N)[C@H](NC(=O)c1ccc(C#Cc2ccncc2)cc1)C(=O)NO = > 64 mg/L
COC1CCN(Cc2ccc(C#Cc3ccc(C(=O)N[C@H](C(=O)NO)[C@@H](C)N)cc3)cc2)CC1 = > 64 mg/L
CC(C)(O)[C@H](NC(=O)c1ccc(C#C/C=C/C2CC2)cc1)C(=O)NO = 16 to 64 mg/L
C[C@@H](N)[C@H](NC(=O)c1ccc(C#Cc2ccc(CN3CCCOCC3)cc2)cc1)C(=O)NO = 16 to 64 mg/L

Answer for every listed entry: what is its MIC? The entries follow.
1. CC(C)(N)[C@H](NC(=O)c1ccc(C#Cc2ccc(CN3CCCOCC3)cc2)cc1)C(=O)NO
2. CC(C)(N)C(NC(=O)c1ccc(C#Cc2ccc(CNCC(F)F)cc2)cc1)C(=O)NO (stereo not shown)
3. C[C@H](NCC(=O)NC[C@H](NC(=O)c1ccc(C#C/C=C/c2ccccc2)cc1)C(=O)NO)c1ccccc1
4. C[C@@H](O)[C@H](NC(=O)c1ccc(C#Cc2ccc(CNCC(F)F)cc2)cc1)C(=O)NO

(A)
16 to 64 mg/L
16 to 64 mg/L
16 to 64 mg/L
16 to 64 mg/L
